target: T1, human kallikrein-2 (hK2) (human, UniProt P20151 25-261)
T1 construct: The mature protein is said to be underlined, but the underlining is not recoverable from the text; In the assay hK2 was amine-coupled to a CM4 chip; also called human glandular kallikrein 2; antigen hK2
T1 sequence (P20151 25-261 limits assumed): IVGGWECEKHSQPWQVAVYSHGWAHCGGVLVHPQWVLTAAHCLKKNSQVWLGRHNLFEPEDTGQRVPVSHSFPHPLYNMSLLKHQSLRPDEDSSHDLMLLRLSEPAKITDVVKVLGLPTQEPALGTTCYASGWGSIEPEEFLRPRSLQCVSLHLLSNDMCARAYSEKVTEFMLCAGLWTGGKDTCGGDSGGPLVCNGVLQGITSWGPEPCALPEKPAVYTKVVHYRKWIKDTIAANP
test protocol: SPR, Biacore 3000, hK2 on CM4 chip, mean KD from kon and koff
value kind: pKd
The meaning of pKd here: minus log10 of the concentration in molar units.

binder: h11B6-DFO (humanised 11B6 conjugated with deferoxamine) (antibody, human IgG1, kappa, V domains shown, DFO (deferoxamine) chelator coupled; residues and chain not stated, This is the h11B6 IgG1/kappa carrying DFO; also called h1166-DFO; DFO-h11B6) VH: QVQLQESGPGLVKPSDTLSLTCAVSGNSITSDYAWNWIRQPPGKGLEWIGYISYSGSTTYNPSLKSRVTMSRDTSKNQFSLKLSSVTAVDTAVYYCATGYYYGSGFWGQGTLVTVSS VL: DIVLTQSPDSLAVSLGERATINCKASESVEYFGTSLMHWYQQKPGQPPKLLIYAASNRESGVPDRFSGSGSGTDFTLTISSLQAEDVAVYYCQQTRKVPYTFGQGTKLEIKR
pKd: 9.27

// query Give pKd for murine 11B6 antibody (m11B6), parent murine anti-hK2 monoclonal antibody (antibody, mouse IgG1, kappa, V domains shown, Whole murine IgG obtained from the University of Turku; also called mAb 11B6; ml 1B6) VH: DVQLQESGPGLVKPSQSLSLTCTVTGNSITSDYAWNWIRQFPGNRLEWMGYISYSGSTTYSPSLKSRFSITRDTSKNQFFLQLNSVTPEDTATYFCATGYYYGSGFWGQGTLVTVSS VL: DIVLTQSPASLAVSLGQRATISCRASESVEYFGTSLMHWYRQKPGQPPKLLIYAASNVESGVPARFSGSGSGTDFSLNIQPVEEDDFSMYFCQQTRKVPYTFGGGTKLEIKR
// result 9.72

// query Identify pKd associated with the binder humanised 11B6 antibody (h11B6), IgG1/kappa (antibody, V domains shown, Expressed transiently in HEK293 cells; also called h1186) VH: QVQLQESGPGLVKPSDTLSLTCAVSGNSITSDYAWNWIRQPPGKGLEWIGYISYSGSTTYNPSLKSRVTMSRDTSKNQFSLKLSSVTAVDTAVYYCATGYYYGSGFWGQGTLVTVSS VL: DIVLTQSPDSLAVSLGERATINCKASESVEYFGTSLMHWYQQKPGQPPKLLIYAASNRESGVPDRFSGSGSGTDFTLTISSLQAEDVAVYYCQQTRKVPYTFGQGTKLEIKR
// result 9.19

// query For h11B6-DTPA (humanised 11B6 conjugated with DTPA chelator) (antibody, V domains shown, DTPA chelator coupled; residues and chain not stated, This is the h11B6 IgG1/kappa carrying a chelator; also called h1166-DTPA; H1166-DTPA) VH: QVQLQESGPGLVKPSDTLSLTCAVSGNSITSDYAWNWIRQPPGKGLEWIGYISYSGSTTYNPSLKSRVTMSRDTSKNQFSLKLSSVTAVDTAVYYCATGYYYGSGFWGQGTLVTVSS VL: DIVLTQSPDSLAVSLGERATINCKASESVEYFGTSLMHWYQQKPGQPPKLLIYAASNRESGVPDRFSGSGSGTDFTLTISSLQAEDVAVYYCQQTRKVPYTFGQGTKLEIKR , write its pKd.
// result 9.03
